Documented selectivity α1A vs α1B across a set of compounds
- tested on: human α1A-adrenoceptor (Homo sapiens, UniProt P35348)
- Construct: CHO cells stably expressing either the full‐length human α1A, α1B, or α1D‐adrenoceptor
- Sequence (P35348 whole entry): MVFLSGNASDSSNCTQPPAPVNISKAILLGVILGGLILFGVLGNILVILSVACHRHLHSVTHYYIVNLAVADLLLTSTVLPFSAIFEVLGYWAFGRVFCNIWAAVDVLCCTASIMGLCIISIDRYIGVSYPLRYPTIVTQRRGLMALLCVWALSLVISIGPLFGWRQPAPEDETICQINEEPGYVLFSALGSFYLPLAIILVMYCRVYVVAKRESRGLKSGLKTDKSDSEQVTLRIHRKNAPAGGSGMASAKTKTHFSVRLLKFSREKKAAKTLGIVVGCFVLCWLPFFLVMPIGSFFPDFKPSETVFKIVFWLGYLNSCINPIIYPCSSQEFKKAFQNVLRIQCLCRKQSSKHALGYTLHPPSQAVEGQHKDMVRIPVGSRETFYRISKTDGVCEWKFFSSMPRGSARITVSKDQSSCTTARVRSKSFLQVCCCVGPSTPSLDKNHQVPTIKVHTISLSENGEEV
- assay summary: [3H]prazosin whole-cell competition binding, CHO-α1A cells
- conditions: ratio; 1 = no selectivity for a subtype over another
I only need the number, thanks.

> print(dat)
                               entry.smiles            measure.name  value
1  CN1CC[C@]2(CCN3CCc4c(oc5ccccc45)[C@@H]3C2)N(C)C1=O.Cl  selectivity α1A vs α1B     20

Kindly review the next compound as well.
Per the records, this compound ( `CNCCCN1c2ccccc2CCc2ccc(Cl)cc21` ) has selectivity α1A vs α1B equal to 48
